target: Muscarinic acetylcholine receptor M4 (Homo sapiens) (UniProt P08173); experiment: M4-linked GIRK flux change, two-sided – cell-based, HEK293 M4/GIRK, thallium flux, BTC-AM, M4 allosteric agonist project, primary screen (AID 625); conditions: at 10 µM, actives lie on both sides;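 further: thallium influx through GIRK channels coupled to M4 in HEK293 cells with BTC-AM dye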
Sequence (P08173 whole entry, looked up): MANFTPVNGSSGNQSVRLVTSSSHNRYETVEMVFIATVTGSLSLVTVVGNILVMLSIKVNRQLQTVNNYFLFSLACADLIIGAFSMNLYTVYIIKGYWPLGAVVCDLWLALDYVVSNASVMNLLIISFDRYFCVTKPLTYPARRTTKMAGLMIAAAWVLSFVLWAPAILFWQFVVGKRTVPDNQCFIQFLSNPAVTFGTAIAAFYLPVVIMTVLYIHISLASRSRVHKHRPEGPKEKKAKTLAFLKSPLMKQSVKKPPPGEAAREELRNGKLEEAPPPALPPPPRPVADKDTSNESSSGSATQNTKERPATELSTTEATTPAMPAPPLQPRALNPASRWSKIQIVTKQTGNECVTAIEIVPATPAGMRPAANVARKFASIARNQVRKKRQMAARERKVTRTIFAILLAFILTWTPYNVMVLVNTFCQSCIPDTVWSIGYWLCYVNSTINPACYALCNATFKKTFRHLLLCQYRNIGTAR
Active and inactive are the calls of the source.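 How the source made its calls: active means fluorescence slope after compound addition differing from the mean of all tested samples at 99.7% confidence, mostly higher but some lower; inactive means the rest.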
Entries and their fluorescence slope

| compound | fluorescence slope |
| --- | --- |
| Cc1ccccc1CN1CCNC1=O | 0.00621 (inactive) |
| CN(CC(=O)N1CCN(c2ccc(F)cc2)CC1)S(=O)(=O)c1ccc(F)cc1 | 0.00279 (inactive) |
| C=CCNC(=O)CNS(=O)(=O)c1ccc(F)cc1 | 0.00626 (inactive) |
| O=C(CN(Cc1ccco1)C(=O)CNS(=O)(=O)c1ccc(Cl)cc1)NCc1ccc(F)cc1 | 0.00551 (inactive) |
| O=C(CSc1nc2ccccc2o1)N1CCN(c2ccc(Cl)cc2)CC1 | 0.00749 (inactive) |
| O=C(NCc1ccccn1)c1ccc2nc(-c3ccco3)c(-c3ccco3)nc2c1 | 0.00242 (inactive) |
| CCN(CC)CCNC(=O)C1CCN(S(=O)(=O)N2CCCCC2)CC1 | 0.00434 (inactive) |
| O=C(Cn1ccc2ccccc2c1=O)NCCC(=O)N1CCN(C2CCCCC2)CC1 | 0.00596 (inactive) |
| Cc1ccc(Oc2ccc(-c3nc(N)nc(N)n3)cc2)cc1 | 0.00425 (inactive) |
| COc1ccccc1NC(=O)N1c2ccc(F)cc2CCC1C (stereo unspecified) | 0.00635 (inactive) |
| COc1ccc(Cl)cc1C(=O)n1nc(C)cc1C | 0.00581 (inactive) |
